- test_target: T1, Bovine Alpha-s1-casein (SEQ ID NO: 1)
- T1 chain: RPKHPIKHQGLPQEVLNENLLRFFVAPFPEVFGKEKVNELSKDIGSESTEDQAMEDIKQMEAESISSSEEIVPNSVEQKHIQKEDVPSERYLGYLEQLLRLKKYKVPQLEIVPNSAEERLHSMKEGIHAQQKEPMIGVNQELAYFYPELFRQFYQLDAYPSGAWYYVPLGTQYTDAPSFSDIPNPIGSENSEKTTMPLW
measurement_type: phosphorylation at S103, MS grade, in vitro kinase reaction

Can you share its phosphorylation at S103, MS grade, in vitro kinase reaction? I mean this protein: PKNB1_Cgl2751 (Corynebacterium glutamicum) (SEQ ID NO: 9) (protein) MYEVLGVIAHGGMGWIYLANDRNVSGRIVVLKGMMAQSSVQDQGTAEAEREFLADITHPGIVKAYNFIDDPRVPGGFIVMEYVNGPSLKDRCKAQPDGVLRVDLAIGYILELLPAMDYLHQRGVVYNDLKPENVIATEDQVKLIDLGAVTGIGAFGYIYGTKGFQAPEVATHGPSISSDIFTIGRTLAALTMPLPVEDGVLAPGIPSPKNSPLLRRHLSFYRLLQRATADDPQHRFRNVSELRTQLYGVLREILAVRDGKQYPPQHSLFSPQRSTFGTKHLVF
+

What measured phosphorylation at S103, MS grade, in vitro kinase reaction goes with PrkD (Bacillus subtilis 168 | BSU_02030) (SEQ ID NO: 7) (protein) MALKLLKKLLFDRPLKNGVILNHQYKIEECLGMGGYGLVYLCTDILAQTPYVLKQLRPTKAKKEKEKVRFQQEIKLLKNIHHPQIPGFIDEFIIDGQAYYVMQFIEGENIEELLFFRKQPFTELMALQLISQLLEIIEYLHDRLIFHSDIRTPNIIINDGRLCLIDFGLAKQLTPEEMEEIKVRKQDDFFDLGETLLFLLYSQYKGKKKKNGTWLEELTLTKEVTLLLKRLLGIEEEYQHTASIREDLNRAIQSVT ?
+

For YabT (GenBank: SPU13583.1) (SEQ ID NO: 5) (protein) MLNWTPKLQSLSTPFAKLSTAAITPTGPAIREATLQFEKYAQEGACWQMMNDALTSLACSLKPGTTIKGKWNGNTYTLRKQLGKGANGIVYLAETSDGHVALKVSDDSLSITSEVNVLKSFSKAQSVTMGPSFFDTDDAYIPSANTKVSFYAMEYIKGPLLLKYVSDKGAEWIPVLMIQLLSSLSVLHQQGWIFGDLKPDNLIVTGPPARIRCIDVGGTTKEGRAIKEYTEFYDRGYWGYGTRKAEPSYDLFAVAMIMINSVHKKEFKKTNQPKEQLRSLIEGNPLLQKYKKALFSALNGDYQSADEMKKDMLDAGQKAAQRKQPIKASPQPATRQRQQKPRQGKITKTRYTPKQKPAKSGGLFETTLIVISVLALYFAYIIFFLI , what is its reported phosphorylation at S103, MS grade, in vitro kinase reaction?
+
